system: HCC-2998 colon; test: NCI tumour cell line growth inhibition, 48 h
value.kind: TGI (µM)
Write the answer as a number in µM, unit excluded.

Endpoint output: TGI of C=C1CC(C)(COc2ccc3c(C)c(C)c(=O)oc3c2C)OC1=O (centres undefined) . Value? 4.49

Requested read-out: TGI. Entry: O=C(c1ccc(Cl)c(Cl)c1)N1CCN(C(=O)c2ccc(Cl)c(Cl)c2)C1=S 42.9

* * *

test system: RPMI-8226 leukemia; experiment: NCI tumour cell line growth inhibition, 48 h
Please provide measured TGI for the entries that follow.
Value expressed in µM; do not type the unit.

GET /values?readout=TGI&item= C=C1CC2(CC(c3ccccc3OC)OC(c3ccccc3OC)C2)OC1=O (stereo not drawn) 1.45

Field request: TGI | item: COc1cccc2c1C(=O)c1c(O)c3c(c(O)c1C2=O)C[C@@](O)(C(=O)CO)C[C@@H]3OC1CC2C(OCN3CN2COC2C(C)OC(O[C@H]4C[C@](O)(C(=O)CO)Cc5c(O)c6c(c(O)c54)C(=O)c4c(OC)cccc4C6=O)CC23)C(C)O1 (stereo partly drawn) 0.0116

Could you share which TGI value was measured for Oc1c(Br)cc(Br)c2ccc(Cn3cc(-c4ccc(C(F)(F)F)cc4)nn3)nc12 ? 5.6

Recorded TGI for CC(C)(C)COC1C2(OCCO2)C2CCC1(C)C2(C)C (stereo not drawn) , please? 41.7

* * *

test system: SN12C renal; assay: NCI tumour cell line growth inhibition, 48 h
So I've got a bunch of molecules here, and I need their TGI values.

Query the reported TGI for SN12C renal; item: CC1(C)Cc2c(cnn2-c2ccc(C(F)(F)F)cc2)-c2nc(-c3ccc(O)cc3)[nH]c21 31.8 µM

// fetch SN12C renal TGI for CC1CC[C@@]23CCC4(C)[C@@](C=CC5[C@@]6(C)CCC(=O)C(C)(C)C6CC[C@]54C)(OC2=O)[C@@H]3[C@H]1C (some centres undefined) > 100 µM

# returns recorded TGI (system: SN12C renal) for Cc1cn(CCCC2=NCCCN2)c(=O)[nH]c1=O > 100 µM

Observed TGI on SN12C renal for O=C1C(=O)c2cc([N+](=O)[O-])ccc2-c2ccc([N+](=O)[O-])cc21 , please. 2.29 µM

Quick check: TGI on SN12C renal, item O=c1cc(-c2ccccc2)nc(-n2[nH]c3c(c2=O)CCCC3)[nH]1 ? > 100 µM

What TGI appears in the records for this molecule with SN12C renal? CSc1nc(-c2cc3ccccc3o2)cc(-c2ccc(Cl)cc2)c1C#N > 100 µM

Write down the reported TGI of O=C1/C=C/[C@@H](O)[C@@H]2C[C@@H](O)C[C@H]2/C=C/CCC[C@H](CCOCc2ccccc2)O1 , test system: SN12C renal. > 100 µM

What value of TGI on SN12C renal does C=C(Cl)C(Cl)(CBr)CCCC(C)(C)Cl (centres undefined) have? > 100 µM

Please tell me: TGI of Cc1cc2c(c(S(=O)(=O)c3ccc(Cl)cc3[N+](=O)[O-])c1)NCCC2 , system SN12C renal? > 100 µM

* * *

test system: KM20L2 colon; test: NCI tumour cell line growth inhibition, 48 h
value.kind: TGI

Requested read-out: TGI. Entry: CC/C=C\C/C=C\C/C=C\CCCCCCCC(=O)OC > 100 µM

What value of TGI has been recorded for this entry: O=C(Cc1cc[n+]([O-])cc1)C(=O)Nc1cc(Cl)c(Cl)cc1Cl > 100 µM

Which TGI value is on record for COc1cc(/C=C(\NC(=O)c2ccccc2)c2nc3[nH]c(=S)[nH]c(=O)c3[nH]2)cc(OC)c1OC ? > 100 µM

Consider the compound CC1(C)CC(C)(C)CC(O)(C2(O)CC(C)(C)CC(C)(C)C2)C1 and give its measured TGI. > 100 µM

Please give the measured TGI for this compound: CCOc1ccc([Se][Se]c2ccc(OCC)cc2)cc1 > 100 µM

What measured TGI goes with O=S1c2ccccc2N=C(c2cccc3ccccc23)CC1c1cccc2ccccc12 (stereo not given) ? > 100 µM

Quick one: TGI of COc1ccc2[nH]c3c(C)c4ccncc4c(C)c3c2c1 ? 7.32 µM

Would you mind telling me what TGI value was observed for COC1=C(C)C(=O)C2=C(C1=O)[C@@H]1[C@@H]3Cc4c(OC(=O)CO)c(C)c(OC)c(O)c4[C@H](CNC(=O)C(C)=O)N3[C@@H](C#N)[C@H](C2)N1C ? 0.686 µM

Given CCC[CH2][Sn]1([CH2]CCC)[O]CC(CN2CCCCC2)[O]1 (stereo not given) , state its recorded TGI. 2.21 µM

Which measured TGI value corresponds to O=c1[nH]cnc2c1sc(=S)n2-c1ccccc1 ? > 100 µM
